The reported measurements were obtained from the kinase profiling compilation of Christmann-Franck et al. (2016).

- Tested target: STK32B (human) (UniProt Q9NY57)
- Sequence (Q9NY57 whole entry, looked up): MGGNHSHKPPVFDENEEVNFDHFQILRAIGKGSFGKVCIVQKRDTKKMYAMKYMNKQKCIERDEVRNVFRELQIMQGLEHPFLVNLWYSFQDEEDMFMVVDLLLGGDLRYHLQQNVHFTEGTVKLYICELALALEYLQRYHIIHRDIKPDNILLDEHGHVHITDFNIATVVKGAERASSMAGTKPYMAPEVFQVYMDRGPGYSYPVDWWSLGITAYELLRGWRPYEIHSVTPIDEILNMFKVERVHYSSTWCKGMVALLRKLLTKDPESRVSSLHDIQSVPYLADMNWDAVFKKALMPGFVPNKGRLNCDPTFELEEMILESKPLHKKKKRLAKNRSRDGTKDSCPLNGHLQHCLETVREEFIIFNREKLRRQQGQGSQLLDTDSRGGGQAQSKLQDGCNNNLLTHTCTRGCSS
- Test details: KINOMEscan competition binding
- Assay conditions: compound 10.0 µM
// values below are reported kinase still bound, per cent of control

Compound: COc1ccc(N(C(=O)Oc2cc(C(=O)Nc3cccc(C(F)(F)F)c3)ccc2C)c2ccnc(Nc3ccc(N4CCN(C)CC4)cc3)n2)c(OC)c1
Tested target: STK32B (human) (UniProt Q9NY57)
Result unit: %
kinase still bound, per cent of control: 100

Compound: N#C/C(=C1/Nc2ccccc2S1)c1ccnc(NCCc2cccnc2)n1
Tested target: STK32B (human) (UniProt Q9NY57)
Result unit: %
kinase still bound, per cent of control: 100

Compound: CC1=C(C(=O)Nc2cc3cn[nH]c3cc2F)C(c2ccc(C(F)(F)F)cc2)CC(=O)N1 (stereo not drawn)
Tested target: STK32B (human) (UniProt Q9NY57)
Result unit: %
kinase still bound, per cent of control: 52

Compound: Cc1cn(-c2cc(C(=O)Nc3ccc(C)c(NC(=O)c4ccno4)c3)cc(C(F)(F)F)c2)cn1
Tested target: STK32B (human) (UniProt Q9NY57)
Result unit: %
kinase still bound, per cent of control: 100

Compound: COc1cc(N2CCC(C(N)=O)CC2)ccc1Nc1nc(N)c(Cl)c(Nc2ccccc2S(=O)(=O)C(C)C)n1
Tested target: STK32B (human) (UniProt Q9NY57)
Result unit: %
kinase still bound, per cent of control: 3.7

Compound: CCc1nc(-c2cccc(C)c2)c(-c2ccnc(NC(=O)c3ccccc3)c2)s1
Tested target: STK32B (human) (UniProt Q9NY57)
Result unit: %
kinase still bound, per cent of control: 7

Compound: O=c1[nH]c2ccccc2n1C1CCN(Cc2ccc(-c3nc4cc5[nH]cnc5cc4nc3-c3ccccc3)cc2)CC1
Tested target: STK32B (human) (UniProt Q9NY57)
Result unit: %
kinase still bound, per cent of control: 88

Compound: CCCS(=O)(=O)Nc1ccc(F)c(C(=O)c2c[nH]c3ncc(Cl)cc23)c1F
Tested target: STK32B (human) (UniProt Q9NY57)
Result unit: %
kinase still bound, per cent of control: 100

----------
Reported kinase still bound, per cent of control values for a set of compounds
- Tested target: EPHA6 (human) (UniProt Q9UF33)
- Sequence (Q9UF33 whole entry, looked up): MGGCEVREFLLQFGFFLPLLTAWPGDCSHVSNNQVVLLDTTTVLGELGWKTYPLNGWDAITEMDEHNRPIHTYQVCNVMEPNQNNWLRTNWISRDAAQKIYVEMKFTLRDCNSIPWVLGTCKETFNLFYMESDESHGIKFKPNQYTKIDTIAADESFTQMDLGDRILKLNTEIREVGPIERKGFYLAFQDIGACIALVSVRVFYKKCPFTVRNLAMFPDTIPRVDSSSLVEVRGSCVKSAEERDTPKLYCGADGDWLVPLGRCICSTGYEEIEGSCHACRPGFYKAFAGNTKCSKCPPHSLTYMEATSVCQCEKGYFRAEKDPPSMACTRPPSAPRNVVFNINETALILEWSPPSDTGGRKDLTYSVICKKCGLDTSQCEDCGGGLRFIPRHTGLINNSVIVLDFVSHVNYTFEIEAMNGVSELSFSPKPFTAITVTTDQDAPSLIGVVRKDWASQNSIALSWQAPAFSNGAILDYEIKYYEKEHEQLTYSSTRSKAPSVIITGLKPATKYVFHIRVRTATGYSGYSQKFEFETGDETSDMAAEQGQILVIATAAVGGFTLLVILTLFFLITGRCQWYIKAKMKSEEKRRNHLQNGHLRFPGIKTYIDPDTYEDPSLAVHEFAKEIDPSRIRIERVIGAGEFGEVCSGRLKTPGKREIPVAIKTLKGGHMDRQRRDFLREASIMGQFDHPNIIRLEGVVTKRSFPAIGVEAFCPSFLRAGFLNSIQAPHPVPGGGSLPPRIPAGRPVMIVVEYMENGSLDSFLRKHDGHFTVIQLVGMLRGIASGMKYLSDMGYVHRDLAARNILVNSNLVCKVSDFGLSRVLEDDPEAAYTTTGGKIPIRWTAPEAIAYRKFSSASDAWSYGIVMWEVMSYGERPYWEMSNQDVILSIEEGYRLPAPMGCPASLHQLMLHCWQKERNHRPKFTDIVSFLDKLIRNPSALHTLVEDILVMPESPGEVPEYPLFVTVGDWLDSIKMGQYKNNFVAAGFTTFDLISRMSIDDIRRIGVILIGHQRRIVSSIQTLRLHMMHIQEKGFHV
- Test details: KINOMEscan competition binding
- Assay conditions: compound 10.0 µM

Compound: CC(=O)c1c(C)c2cnc(Nc3ccc(N4CCNCC4)cn3)nc2n(C2CCCC2)c1=O
Result unit: %
kinase still bound, per cent of control: 96

Compound: COc1cc(C)c(Sc2cnc(NC(=O)c3ccc(CNC(C)C(C)C)cc3)s2)cc1C(=O)N1CCN(C(C)=O)CC1 (stereo not drawn)
Result unit: %
kinase still bound, per cent of control: 11

Compound: O=c1[nH]c2ccccc2n1C1CCN(Cc2ccc(-c3nc4cc5[nH]cnc5cc4nc3-c3ccccc3)cc2)CC1
Result unit: %
kinase still bound, per cent of control: 98

Compound: COc1ccc(N(C(=O)Oc2cc(C(=O)Nc3cccc(C(F)(F)F)c3)ccc2C)c2ccnc(Nc3ccc(N4CCN(C)CC4)cc3)n2)c(OC)c1
Result unit: %
kinase still bound, per cent of control: 0.35

Compound: C=CC(=O)Nc1ccc(C(=O)c2sc(Nc3ccc(N4CCN(C)CC4)cc3OC)nc2N)cc1
Result unit: %
kinase still bound, per cent of control: 88

Compound: N#Cc1cc(-c2ccnc(Nc3ccc(-n4cnc(-c5cccnc5)n4)cc3)n2)cc(N2CCOCC2)c1
Result unit: %
kinase still bound, per cent of control: 72

Compound: N#C/C(=C1/Nc2ccccc2S1)c1ccnc(NCCc2cccnc2)n1
Result unit: %
kinase still bound, per cent of control: 99

Compound: CCOc1cc(N2CCC(O)CC2)ccc1Nc1ncc2c(n1)N(C)c1ccccc1C(=O)N2C
Result unit: %
kinase still bound, per cent of control: 100

Compound: COc1cc2c(Nc3ccc(NC(=O)c4ccccc4)cc3)ncnc2cc1OCCCN1CCOCC1
Result unit: %
kinase still bound, per cent of control: 85

Compound: COc1cc2ncnc(Nc3cccc(Cl)c3)c2cc1OC
Result unit: %
kinase still bound, per cent of control: 11

Compound: COc1cc(N2CCC(C(N)=O)CC2)ccc1Nc1nc(N)c(Cl)c(Nc2ccccc2S(=O)(=O)C(C)C)n1
Result unit: %
kinase still bound, per cent of control: 100

Compound: CNC(=O)Nc1ccc(-c2nc(N3CC4CCC(C3)O4)c3cnn(C4CCC5(CC4)OCCO5)c3n2)cc1
Result unit: %
kinase still bound, per cent of control: 98

Compound: CCN(CCO)CCCOc1ccc2c(Nc3cc(CC(=O)Nc4cccc(F)c4)[nH]n3)ncnc2c1
Result unit: %
kinase still bound, per cent of control: 69

Compound: Cc1cn(-c2cc(C(=O)Nc3ccc(C)c(NC(=O)c4ccno4)c3)cc(C(F)(F)F)c2)cn1
Result unit: %
kinase still bound, per cent of control: 100

Compound: CC1=C(C(=O)Nc2cc3cn[nH]c3cc2F)C(c2ccc(C(F)(F)F)cc2)CC(=O)N1 (stereo not drawn)
Result unit: %
kinase still bound, per cent of control: 95

Compound: CCN1CCN(Cc2ccc(NC(=O)c3ccc(C)c(/C=C/c4cnc5[nH]ccc5c4OC)c3)cc2C(F)(F)F)CC1
Result unit: %
kinase still bound, per cent of control: 0

Compound: CCCS(=O)(=O)Nc1ccc(F)c(C(=O)c2c[nH]c3ncc(Cl)cc23)c1F
Result unit: %
kinase still bound, per cent of control: 100

Compound: CCc1nc(-c2cccc(C)c2)c(-c2ccnc(NC(=O)c3ccccc3)c2)s1
Result unit: %
kinase still bound, per cent of control: 47
